Value source: the supplement of paper PMC9170038

# Test system: MS2 coat protein
# TEST_PROTOCOL: apparent KD of MS2 coat protein; designed switch direction (-1 OFF switch, 1 ON switch): 1; higher = weaker reporter binding
# CONDITION: input ligand: none
MEASUREMENT_TYPE: apparent KD of MS2 coat protein (nM)
Your answer is read as nM, so omit the unit and give the number.

Qu. Respond only with apparent KD of MS2 coat protein recorded for GCUAGAAUAAACGCCUACAUGAGGAUCACCCAUGUAUGUAGGCAGGAUAUCGUUUGCAAAGCAAACGAGAAGGGCCUUACUAGC [Mat - Same State NG 3 - JL Mod - D32] (Eterna round: R96, puzzle: Same State NG 3)
Ans. 37.1

Next:
Qu. Supply recorded apparent KD of MS2 coat protein for ACAUGAGAGAAAGGAUAUCUUGUACCUACAUGUGACAUGAGGAUCACCCAUGUGGUAAGUAUGACAGAGAAGGUUCAGAUAUGU [Equivalance 71 - Jieux - Same State NG 2] (Eterna round: R96, puzzle: Same State NG 2) here.
Ans. 86.3

* * *

# Test system: MS2 coat protein
# TEST_PROTOCOL: apparent KD of MS2 coat protein; designed switch direction (-1 OFF switch, 1 ON switch): 1; higher = weaker reporter binding
# CONDITION: input ligand: FMN 200 uM
MEASUREMENT_TYPE: apparent KD of MS2 coat protein

Solved entries (count: 4):
Qu. Please look at this sequence and report its apparent KD of MS2 coat protein: GGCCAGAGUCAAGGAUAUGCUACCGUUUCGGUAGCAGAAGGUGAUCACAUGAGGAUCACCCAUGUUUACUGCGAGAGUAUGGCC [JL SSNG1 3.67] (Eterna round: R96, puzzle: Same State NG 1)
Ans. 661 nM

Qu. Determine from records and report apparent KD of MS2 coat protein for AGAUGUUAAUUAGGAUAUGGACACAUGAGGAUCACCCAUGUAACGAAGAUACGAUGUGGUCAAGUCUAGAAGGGAUCGCUAACA [SameState NG2 #74] (Eterna round: R96, puzzle: Same State NG 2)
Ans. 38.1 nM

Qu. Note down apparent KD of MS2 coat protein recorded for GUGCGGGUAAGAGGAUAUACAAAUUCUCGUUCUGAGACGAGAACAUGAGGAUCACCCAUGUCUAAGUAGAAGGUUUCAGGCACC [Eternabot solution 28] (Eterna round: R96, puzzle: Same State NG 2)
Ans. 21.3 nM

Qu. // fetch apparent KD of MS2 coat protein given entry UAGGAACAUGAGGAUCACCCAUGUACCUCAUAUGGAGAAACACAGGAUAUGCUCAGCGAAAGAGAGCAGAAGGGUGAAGAGAGG [Default title] (Eterna round: R96, puzzle: Same State NG 3)
Ans. 23.6 nM

Here is the next item to consider.
Qu. Consider the sequence GCUCGCACGAUGACCGACAUGAGGAUCACCCAUGUGUGUCGGUAGGAUAUCUAUAUUAAGGAUUUAGAGAAGGGCCGAGCGAGC [SameState NG3 #21] (Eterna round: R96, puzzle: Same State NG 3) . State its measured apparent KD of MS2 coat protein.
Ans. 57.1 nM

* * *

# System: K4 kissing-loop RNA reporter
# TEST_PROTOCOL: apparent KD of K4 kissing-loop reporter; higher = weaker reporter binding
# CONDITION: Eterna round: R107; input ligand: none
MEASUREMENT_TYPE: apparent KD of K4 kissing-loop reporter

Consider the worked cases shown below.
Qu. Would you please give the reported apparent KD of K4 kissing-loop reporter of AAGGCCACGAGAAGGAGCGUGUUGUGGAGUGAUGUUCCAUUGUAGACCUAAGGUCUGCGAGCACAGGUAGGUCGCUCGUGGUCAA [whbob_SS_Arginine_B_2t150] with K4 kissing-loop RNA reporter?
Ans. 107 nM

Qu. # assay system K4 kissing-loop RNA reporter: give apparent KD of K4 kissing-loop reporter of UGAUAGGACAGAAGGAGCGGUAGUGAUGUUACCAAAAGAAUAAGGUGUCAAAAGACACCCUACCAGGUAGGUCGCUGUCCUAUCU
Ans. 189 nM

Qu. Give apparent KD of K4 kissing-loop reporter for GUGCGGCUAGUGAUGUUGGUUGCGUGGGAAGGAGCGCAGUAAAAUGCAGGUAGGUCGCCCGCAUCUCUGAUAAAAGAUUAAUUCA [KL-SSArg-A9] tested on K4 kissing-loop RNA reporter.
Ans. 228 nM

Qu. Param request: apparent KD of K4 kissing-loop reporter | system K4 kissing-loop RNA reporter | item UCGAACGAUGGAAGGAGCGCUCGUCAGCCCUGCGAGUGAUGUUCGUGGGUAAAUAGUCGCGAGCAGGUAGGUCGCCAUCUUGAGC [Zainsotima]
Ans. 129 nM

Qu. Return reported apparent KD of K4 kissing-loop reporter for target or system K4 kissing-loop RNA reporter, item UUUCGUCUCUGAGGAUAUCAGAGGAGAGUGAUGUUCUCCCAUAGCCCAGUGAUGUUGGAUGCUAUCUGAGAAGGCAGUGGGCGAA [Same State FMN B GF 13] .
Ans. 164 nM

Qu. // fetch apparent KD of K4 kissing-loop reporter; item: AGGAUCCGUCGACAAAAGUCGACAUAAACCAAGGAUAUGACGAAAGUCAGAAGGUGGUCAUAAGACCAGUGAUGUUGGUGGAUCC [FmnA 11 #SwitchBubble #K4Late] ; system: K4 kissing-loop RNA reporter
Ans. 467 nM

Qu. State, for K4 kissing-loop RNA reporter, measured apparent KD of K4 kissing-loop reporter of the sequence listed here: UUGGGCAACCGAGAUACCAGUCAAAUCGCUCUGGAGUGAUGUUCCGGAACAUGCGGAGAAGACCCUUGGCAGCUCAAGACGGACA [Exclusion Theophylline B GF 1]
Ans. 107 nM

Qu. Specify the recorded apparent KD of K4 kissing-loop reporter for AUGGGUUUGGGAGGAUAUCCUUCCCACGUCGAAGUACCGUGCUUGAUGGAGUGAUGUUCGAUCAGAGGAGAAGGCCCGGAUUUAU [Same State FMN B GF21] , system: K4 kissing-loop RNA reporter.
Ans. 845 nM

Qu. Please report apparent KD of K4 kissing-loop reporter with K4 kissing-loop RNA reporter for item AGUGGACGUGUCCGGAGUGAUGUUCAGGAUACCAGACACGAAAGUGUCCCUUGGCAGCCGGAGUGAUGUUCCGGCGUUCACUAAA [Omei KL Theo A Exc B v4] .
Ans. 360 nM

Qu. Recall the reported apparent KD of K4 kissing-loop reporter of UGACUGGACUGAAGGAGCGCUAAAACUCCUAGUGAUGUUGGGAAAUAAGAGACAAAGUCUCAGCAGGUAGGUCGCAGUCUAGUCU [ArgBS 24 #SwitchBubble #StaticStem] when tested on K4 kissing-loop RNA reporter.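 Note: bound reporter read as fluorescence of individual clusters on recovered sequencing chips by microscopy, with normalized cluster intensities fitted with a binding model.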
Ans. 503 nM

Next:
Qu. State apparent KD of K4 kissing-loop reporter on K4 kissing-loop RNA reporter. Entry: GCCAGUGAUGUUGGCGAACCGACGCAUGCAGAGGAUAUUCGAUCUUGAAGAAGGCUGCAGCGUCAUCAUACGCAGUGAUGUUGCG [Same State FMN A GF 27]
Ans. 182 nM
